# inhibition values compiled below
- ASSAY_PROTOCOL: 535nm fluorescence optical interference, confirmation, artefact control for HGIII-sPLA2 inhibitor project, biochemical, QFRET (AID 743282);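 also: 0% = DMSO with substrate plus product and 100% = DMSO with substrate alone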
- MEASUREMENT_PARAMETERS: BODIPY FL product fluorescence interference, at 12.2 µM, stronger effect = higher value
Among all 2,000 compounds or so, about 170 (8.5%) were called active. A selection follows.
Write the number in % without appending the unit.

# annotated cases, reported inhibition shown
- MOLECULE: "Cc1c(NC(=S)NCc2ccc(F)cc2)cccc1[N+](=O)[O-]"
  inhibition, %: -0.65
- MOLECULE: "COc1ccc(Cl)cc1C(=O)NNC(=S)NC1CCCC1"
  inhibition, %: 3.94
- MOLECULE: "COc1ccccc1OCCn1c(SCC(N)=O)nc2ccccc21"
  inhibition, %: -8.97

GET /values?readout=inhibition&item= C/C(=N/NC(=O)c1cc(Cl)ccc1O)C12CC3CC(CC(C3)C1)C2 -3.29

GET /values?readout=inhibition&item= Cc1c(Cl)cccc1NC(=S)NCc1ccc2c(c1)OCO2 0.14

GET /values?readout=inhibition&item= COc1ccc(C(N)c2csc(NC(=O)Nc3cccc(C(F)(F)F)c3)n2)cc1 (stereo not given) 5.13

GET /values?readout=inhibition&item= Cc1cc(-n2nc(C)cc2C)n2ncc(-c3ccccc3)c2n1 -10.6

GET /values?readout=inhibition&item= Cc1ccc(C2Nc3ccccc3C(=O)N2CCN2CCNC2=O)cc1 (stereo not given) -4.79

GET /values?readout=inhibition&item= CC[C@]1(O)C[C@@H]2CN(CCc3c([nH]c4ccccc34)[C@@](C(=O)OC)(c3cc4c(cc3OC)N(C)[C@H]3[C@@](O)(C(=O)OC)[C@H](OC(C)=O)[C@]5(CC)C=CCN6CC[C@]43[C@@H]65)C2)C1 -25

GET /values?readout=inhibition&item= S=c1[nH]nc(-c2ccco2)n1/N=C/c1ccccc1 -0.08

The measured values listed here are drawn from PubChem BioAssay AID743282.
